Target: human HDAC2 (Homo sapiens (Human), UniProt Q92769)
Sequence (Q92769 whole entry): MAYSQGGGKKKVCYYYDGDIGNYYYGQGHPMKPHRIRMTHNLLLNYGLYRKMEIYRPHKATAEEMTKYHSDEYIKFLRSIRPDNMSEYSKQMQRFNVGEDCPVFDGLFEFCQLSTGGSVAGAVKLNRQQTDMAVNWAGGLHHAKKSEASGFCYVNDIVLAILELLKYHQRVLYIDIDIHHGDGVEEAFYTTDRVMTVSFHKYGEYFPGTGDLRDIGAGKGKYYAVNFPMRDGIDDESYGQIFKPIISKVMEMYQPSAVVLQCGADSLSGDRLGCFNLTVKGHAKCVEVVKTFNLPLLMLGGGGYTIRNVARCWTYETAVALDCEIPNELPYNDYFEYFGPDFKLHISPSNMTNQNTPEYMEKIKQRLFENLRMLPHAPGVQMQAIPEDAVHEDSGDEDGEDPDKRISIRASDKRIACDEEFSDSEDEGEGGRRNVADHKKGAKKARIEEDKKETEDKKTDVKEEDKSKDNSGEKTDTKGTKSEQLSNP
Assay: HDAC2 inhibition assay (modified FLUOR DE LYS, 384-well)
Format: biochemical
Details: […] nM enzyme, 40 μM substrate BML-KI104, 3 h pre-incubation; read-out: HDAC2 IC50
assayMetric: IC50 (nM)
Give bare numbers, in nM.

COc1cc2nc(C)ccc2cc1-c1cnc([C@@]2(CCCCCC(=O)c3ccon3)CCC(=O)N2)[nH]1 | 3.5

Count: 3. Required value per item: IC50.
1. CCn1ccc2cc(-c3cnc([C@H](CCCCCC(=O)c4ccon4)NC(=O)CN(C)C)[nH]3)c(OC)cc2c1=O
2. O=C1CC[C@@](CCCCCC(=O)c2ccon2)(c2nc(-c3ccccc3F)c[nH]2)N1
3. CN(C)CC(=O)N[C@@H](CCCCCC(=O)c1ccon1)c1nc(Cl)c(-c2ccc(F)cc2)[nH]1

Result:
1. 1
2. 4.2
3. 0.69

// for each compound below, give its IC50
1. COc1cc2nc(C)ccc2cc1-c1c[nH]c([C@@H](N)CCCCCC(=O)c2ccon2)n1
2. Cc1ccc2cc(-c3cnc(C(N)CCCCCC(=O)c4ncco4)o3)ccc2n1 (stereo not shown)
3. COc1cc2nc(C)ccc2cc1-c1cnc([C@H](CCCCCC(=O)c2ncco2)NC(=O)CN(C)C)[nH]1

Result:
1. 4.3
2. 35
3. 3.4
